B1: tRNA (parent)
chain: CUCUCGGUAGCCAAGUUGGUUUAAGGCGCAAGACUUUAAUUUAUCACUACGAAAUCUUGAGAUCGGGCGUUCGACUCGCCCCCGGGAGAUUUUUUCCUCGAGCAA

variants of: B1; test: nonsense suppression (GFP-seq) (ratio to wild type); higher = more function; SUP4oc tRNA, yeast GFP reporter sort-seq
Variants at the floor of the assay were thinned out.
Readout Label: nonsense suppression
Just the number, please, no unit after it.

Some solved entries appear below for comparison.
C11A G61A ... 0.22
U17G C79U ... 0.764

Q: Could you share which nonsense suppression value was measured for G78A C82G ?
Ans: 0.0423

Q: Could you share which nonsense suppression value was measured for G73A A87U ?
Ans: 0.0409

Q: Could you share which nonsense suppression value was measured for A31U U76A ?
Ans: 0.0413

Just for reference, the RNAGym collection of RNA variant scans (doi:10.1101/gad.245936.114) is where these values come from.
